test system: Plasmodium berghei; test: Screen against P. berghei liver stage (PbLuc), transformed with Luciferase, at 10uM; type: functional, HepG2; details: tested at 10 uM
About 8,600 (12%) of roughly 69,000 compounds showed an effect of 50% or more. The entries come from a sample that favours strong results as a whole.
Decision: INHIBITION compared against 20%; not below it gives y, below it gives n.

As a guide, the following entries are already answered.
Problem: # bool: INHIBITION of CC(=O)N1CCC(c2ccnc(Nc3cnccn3)n2)C1 (centres undefined) >= 20%
Result: y

Problem: # bool: INHIBITION of COCCS(=O)(=O)NCc1ccc(N(C)C)c(C)c1 >= 20%
Result: n

***
Problem: # bool: INHIBITION of CC(NC(=O)NCCCn1cncn1)c1ccccc1F (centres undefined) >= 20%
Result: n

Problem: # bool: INHIBITION of Cc1ccc(Nc2nccc(C3CCN(C(=O)CN)C3)n2)nc1 (centres undefined) >= 20%
Result: y

Problem: # bool: INHIBITION of CNc1ncccc1CN1CCN(C(C)=O)CC(C(N)=O)C1 (centres undefined) >= 20%
Result: n

Problem: # bool: INHIBITION of Cc1nc(CNCc2ccc(N3CCN(C)CC3)nc2)cs1 >= 20%
Result: y

Problem: # bool: INHIBITION of CC(NCc1cccc2c1OCCO2)c1cc2c(cc1Br)OCCO2 (centres undefined) >= 20%
Result: n

Problem: # bool: INHIBITION of O=C(C1CCCC1)N1CCC(c2ccnc(Nc3cnccn3)n2)C1 (centres undefined) >= 20%
Result: y

Problem: # bool: INHIBITION of CN(Cc1ccsc1)C(=O)Nc1ccc(N2CCCC2)nc1 >= 20%
Result: n

Problem: # bool: INHIBITION of CC(=O)N1CCCC(c2ccnc(Nc3cnccn3)n2)C1 (centres undefined) >= 20%
Result: y

Problem: # bool: INHIBITION of Cc1nc(CCCNC(=O)C2CC(=O)N(C3CC3)C2)sc1C (centres undefined) >= 20%
Result: y

Problem: # bool: INHIBITION of Cc1cccc(C(=O)NCc2cccnc2N(C)C)n1 >= 20%
Result: y

Problem: # bool: INHIBITION of CCOc1ccc(NCc2cnc(N3CCN(C)CC3)nc2)cn1 >= 20%
Result: n

Problem: # bool: INHIBITION of CNCC(=O)N1CCCC(c2ccnc(Nc3cnccn3)n2)C1 (centres undefined) >= 20%
Result: n

Problem: # bool: INHIBITION of CN(Cc1ccc(F)cc1)Cc1cc2c(cc1Br)OCCO2 >= 20%
Result: y

Problem: # bool: INHIBITION of Cc1nc(CCCNC(=O)C2CC(=O)N(C3CCCC3)C2)sc1C (centres undefined) >= 20%
Result: y

Problem: # bool: INHIBITION of COC(=O)CNC(=O)c1cn(Cc2ccccc2F)nn1 >= 20%
Result: y

Problem: # bool: INHIBITION of CN(Cc1ccc(F)cc1F)Cc1cc2c(cc1Br)OCCO2 >= 20%
Result: y

Problem: # bool: INHIBITION of CN1CCN(c2ccc(NCc3ccsc3)cn2)CC1 >= 20%
Result: y

---

test system: Plasmodium berghei; experiment: Screen against P. berghei liver stage (PbLuc), transformed with Luciferase, at 10uM; type: functional, HepG2; details: tested at 10 uM
Screen size: about 69,000 compounds; about 8,600 (12%) showed an effect of 50% or more. The sample holds strong results, similar compounds and a random draw of the others, so the mix is not that of the screen.
measured parameter: INHIBITION (%)
Express your answer in %, writing the number without its unit.

Problem: Return INHIBITION for the following compound: O=C1C(N2CCOCC2)CCCN1Cc1cccc(C(F)(F)F)c1 (configuration not stated)
Result: 50.8

Problem: Return INHIBITION for the following compound: CCN1CCOC(CNCc2ccccc2OCC(=O)N(C)C)C1 (configuration not stated)
Result: 12.8

Problem: Return INHIBITION for the following compound: Cc1ccc(-c2cc(C(=O)O)sn2)cc1
Result: -21.9

Problem: Return INHIBITION for the following compound: O=C(NCc1cc(-c2ccccc2)no1)NC1CCCCNC1=O (configuration not stated)
Result: -24.8

Problem: Return INHIBITION for the following compound: Cc1ccc(CN(CCCn2ccnc2)Cc2cnn(C)c2)s1
Result: 24.4

Problem: Return INHIBITION for the following compound: CN(c1ccc(C(C)(C)C)cc1)S(=O)(=O)c1cc(C(=O)O)cs1
Result: 20.6

Problem: Return INHIBITION for the following compound: CC(C)c1nc(CN(C)Cc2ncccc2C(=O)O)cs1
Result: 15.7

Problem: Return INHIBITION for the following compound: O[C@H]1COCCN(Cc2cccc(C(F)(F)F)c2)C1
Result: -4.82

Problem: Return INHIBITION for the following compound: Cc1nccc(C2CN(C(=O)c3cncnc3)C2)n1
Result: -14.2

Problem: Return INHIBITION for the following compound: Cc1ncccc1CNCC1COC2(CCCCC2)O1 (configuration not stated)
Result: 74.9

Problem: Return INHIBITION for the following compound: c1ccn2c(SCC3CN=C(N4CCOCC4)S3)ncc2c1 (configuration not stated)
Result: 0.705

Problem: Return INHIBITION for the following compound: Cc1nn(C)cc1C(C)Nc1ncnc2sccc12 (configuration not stated)
Result: 27.5

---

test system: Plasmodium berghei; test: Screen against P. berghei liver stage (PbLuc), transformed with Luciferase, at 10uM; assay type: functional, HepG2; details: tested at 10 uM
The whole screen tested about 69,000 compounds, of which about 8,600 (12%) showed an effect of 50% or more. Many of the other results were omitted from the sample, so strong results are more common in it than they were.
measured parameter: INHIBITION (%)
Express your answer in %, writing the number without its unit.

Look over these answered cases.
Problem: Return INHIBITION for the following compound: COCCOc1ccc(NC(=O)C2CC(=O)N(C(C)C)C2)cn1 (configuration not stated)
Result: -21.8

Problem: Return INHIBITION for the following compound: COc1ccc(C2CCN(Cc3cscn3)CC2)cc1
Result: 37.7

Problem: Return INHIBITION for the following compound: Clc1ccccc1CN1CCCC(c2nnc(-c3cnccn3)o2)C1 (configuration not stated)
Result: 2.71

***
Problem: Return INHIBITION for the following compound: COc1ncc(CN2CCC3(CCCN(CC4CCC4)C3)C2)cn1 (configuration not stated)
Result: 17.8

Problem: Return INHIBITION for the following compound: Cc1ccc(C(=O)N2CCC(Oc3cccc(C)c3C)CC2)c(=O)[nH]1
Result: 45.5

Problem: Return INHIBITION for the following compound: CC(C(=O)Nc1cccc(C(F)(F)F)c1)N(C)CCN1CCOCC1 (configuration not stated)
Result: 35.2

Problem: Return INHIBITION for the following compound: CCCS(=O)(=O)N1CCC(c2ccc(OC)cc2)CC1
Result: 67.8

Problem: Return INHIBITION for the following compound: Nc1nc2c(c(NCc3nc(-c4ccncc4)n[nH]3)n1)CCCC2
Result: -97.2

Problem: Return INHIBITION for the following compound: Nc1nc2c(c(N3CCN(C(=O)c4cccs4)CC3)n1)CCCC2
Result: 72.5

Problem: Return INHIBITION for the following compound: CN1CCc2c(c(COc3cncnc3)nn2CC2CC2)C1
Result: 24.6

Problem: Return INHIBITION for the following compound: CC(C)N1CCC2(CC1)CC(NCc1ccccn1)c1ccccc1O2 (configuration not stated)
Result: 7.31

Problem: Return INHIBITION for the following compound: Cn1nc(COc2cccnc2)c2c1CCN(CC1CC1)C2
Result: 61.1

---

test system: Plasmodium berghei; experiment: Screen against P. berghei liver stage (PbLuc), transformed with Luciferase, at 10uM; format: functional, HepG2; conditions: tested at 10 uM
About 8,600 (12%) of roughly 69,000 compounds showed an effect of 50% or more. This is one part of a sample in which strong results are shown more often than they occur.
measured parameter: INHIBITION (%)
Express your answer in %, writing the number without its unit.

Problem: Return INHIBITION for the following compound: CC(C)c1ccc(CNC(c2ccc(F)cn2)C(C)C)cc1 (stereo not given)
Result: 48.9

Problem: Return INHIBITION for the following compound: Cc1cc(C)nc(NCCCC(=O)NCCn2ccc3ccccc32)n1
Result: 28.5

Problem: Return INHIBITION for the following compound: CC(C)CNC(=O)c1[nH]nc(C2CC2)c1Br
Result: -7.46

Problem: Return INHIBITION for the following compound: CN(C)C(=O)N[C@@H]1CN(C2CCOCC2)[C@@H]2CCCO[C@@H]21
Result: 20.1

Problem: Return INHIBITION for the following compound: COc1ccc(-c2n[nH]cc2CNC2CCN(C3CC3)CC2)cc1
Result: -39.6

Problem: Return INHIBITION for the following compound: OC1(Cn2ccc3ncccc32)CCN(Cc2ccccn2)CC1
Result: 50.6

Problem: Return INHIBITION for the following compound: Cc1ccc(CN2CCC(O)(Cn3ccc4ncccc43)CC2)o1
Result: 28

Problem: Return INHIBITION for the following compound: CC(=O)N1CCN(c2cc(CCN)nc(C3CC3)n2)CC1
Result: 3.91

Problem: Return INHIBITION for the following compound: CC(C)C(NCc1ccc(Cn2cncn2)cc1)c1ccc(F)cn1 (stereo not given)
Result: 71.2

Problem: Return INHIBITION for the following compound: Cc1cc(CN2CCC(O)(Cn3ccc4ncccc43)CC2)c(C)s1
Result: 23.2
